system: RAW; test: Inhibition of LPS-induced NO production in RAW 264.7 cells; format: functional, cell-based; settings: Mus musculus
assay_readout: pIC50
Note on pIC50: it is the negative log10 of concentration, concentration in mol/L.

Give me measured pIC50, please, for this compound: C=C1C[C@]23C[C@H](OC(=O)/C=C/c4ccc(O)c(O)c4)[C@H]1[C@@]2(C)CCCC3(C)C
5.20

The values you see were collected from ChEMBL document CHEMBL1147120.
